test system: RIVA; experiment: growth inhibition by drug plus 177Lu-lilotomab satetraxetan (1 - RLU/untreated control) (fraction); higher = stronger inhibition; conditions: 100 nM; time (day): 4; 177Lu-lilotomab satetraxetan 0.5 ug/ml
The following molecules are shown together with reported growth inhibition by drug plus 177Lu-lilotomab satetraxetan values.
testReadout: growth inhibition by drug plus 177Lu-lilotomab satetraxetan

CC1(C)CNc2cc(NC(=O)c3cccnc3NCc3ccncc3)ccc21 [Motesanib Diphosphate] | 0.537
CC(C)n1nc(-c2ccc3oc(N)nc3c2)c2c(N)ncnc21 | 0.84
CNC(=O)c1cc(Oc2ccc(NC(=O)Nc3ccc(Cl)c(C(F)(F)F)c3)c(F)c2)ccn1 [Regorafenib (BAY 73-4506)] | 0.581
Cc1[nH]c2ccccc2c1CCNCc1ccc(/C=C/C(=O)NO)cc1 [Panobinostat] | 0.988
CO[C@H]1C[C@@H]2CC[C@@H](C)[C@@](O)(O2)C(=O)C(=O)N2CCCC[C@H]2C(=O)O[C@H]([C@H](C)C[C@@H]2CC[C@@H](OC(=O)C(C)(CO)CO)[C@H](OC)C2)CC(=O)[C@H](C)/C=C(\C)[C@@H](O)[C@@H](OC)C(=O)[C@H](C)C[C@H](C)/C=C/C=C/C=C/1C [Temsirolimus (Torisel)] | 0.883
Cc1cccc(-c2[nH]c(C(C)(C)C)nc2-c2ccc3nccnc3c2)n1 | 0.428
Cc1cnc(Nc2ccc(OCCN3CCCC3)cc2)nc1Nc1cccc(S(=O)(=O)NC(C)(C)C)c1 | 0.275
